Experiment: Fluorescence excitation/emission of the styryl dye library compounds
Assay type: physicochemical
Conditions: EX/EM peak no. 1
Binary label based on EM(nm) with cut-off 600 nm: below gives fulfilled, not below gives not fulfilled.

compound | category
COc1ccc(C=Cc2cc[n+](C)c(-c3cc(C)ccn3)c2)c2ccccc12.[I-] [Compound J14] | fulfilled
COc1ccc2c(ccc(C=Cc3ccc(OC)c(O)c3)[n+]2C)c1.[I-] [Compound I15] | fulfilled
COc1ccc(C=Cc2ccc3ccccc3[n+]2C)cc1.[I-] [Compound H10] | not fulfilled
CN(C)c1ccc(C=Cc2cccc[n+]2C)cc1.[I-] [Compound C19] | fulfilled
C[n+]1c(C=Cc2ccc3ccccc3c2)ccc2ccccc21.[I-] [Compound H33] | not fulfilled
COc1ccc(C=Cc2cc[n+](C)c(-c3cc(C)ccn3)c2)cc1.[I-] [Compound J10] | fulfilled

Q: Hello, I'm reviewing records and need to know if EM(nm) of Cc1ccnc(-c2cc(/C=C/c3c[nH]c4ccccc34)cc[n+]2C)c1.[I-] [Compound J24] is below 600 nm. Could you check?
Ans: fulfilled

Q: Hello, I'm reviewing records and need to know if EM(nm) of C[n+]1ccc(C=Cc2ccc([N+](=O)[O-])cc2)cc1.[I-] [Compound A22] is below 600 nm. Could you check?
Ans: fulfilled

Q: Hello, I'm reviewing records and need to know if EM(nm) of Cc1ccnc(-c2cc(/C=C/c3cccc4ccccc34)cc[n+]2C)c1.[I-] [Compound J32] is below 600 nm. Could you check?
Ans: fulfilled

Q: Hello, I'm reviewing records and need to know if EM(nm) of C[n+]1ccc(C=Cc2ccc3ccc4cccc5ccc2c3c45)c2ccccc21.[I-] [Compound G41] is below 600 nm. Could you check?
Ans: not fulfilled

Q: Hello, I'm reviewing records and need to know if EM(nm) of COc1ccc(C=Cc2cccc(C)[n+]2C)cc1O.[I-] [Compound L15] is below 600 nm. Could you check?
Ans: fulfilled

Q: Hello, I'm reviewing records and need to know if EM(nm) of C[n+]1ccc(C=Cc2ccccc2[N+](=O)[O-])c2ccccc21.[I-] [Compound G20] is below 600 nm. Could you check?
Ans: not fulfilled

Q: Hello, I'm reviewing records and need to know if EM(nm) of C[n+]1ccc(C=Cc2c[nH]c3ccccc23)cc1.[I-] [Compound A24] is below 600 nm. Could you check?
Ans: fulfilled

Q: Hello, I'm reviewing records and need to know if EM(nm) of COc1ccc2c(ccc(C=Cc3ccccc3[N+](=O)[O-])[n+]2C)c1.[I-] [Compound I20] is below 600 nm. Could you check?
Ans: not fulfilled

Q: Hello, I'm reviewing records and need to know if EM(nm) of COc1ccccc1C=Cc1ccc2ccccc2[n+]1C.[I-] [Compound H9] is below 600 nm. Could you check?
Ans: not fulfilled

Q: Hello, I'm reviewing records and need to know if EM(nm) of C[n+]1ccccc1C=Cc1ccc2c(c1)OCO2.[I-] [Compound C39] is below 600 nm. Could you check?
Ans: fulfilled

Q: Hello, I'm reviewing records and need to know if EM(nm) of Cc1ccnc(-c2cc(C=Cc3ccc4c(c3)OCO4)cc[n+]2C)c1.[I-] [Compound J39] is below 600 nm. Could you check?
Ans: fulfilled

Q: Hello, I'm reviewing records and need to know if EM(nm) of C[n+]1c(/C=C/c2ccccc2)ccc2ccccc21.[I-] [Compound H2] is below 600 nm. Could you check?
Ans: not fulfilled

Q: Hello, I'm reviewing records and need to know if EM(nm) of Cc1cccc(/C=C/c2ccc(-c3ccccc3)cc2)[n+]1C.[I-] [Compound L17] is below 600 nm. Could you check?
Ans: fulfilled

Q: Hello, I'm reviewing records and need to know if EM(nm) of COc1ccccc1C=Cc1cc[n+](C)c(-c2cc(C)ccn2)c1.[I-] [Compound J9] is below 600 nm. Could you check?
Ans: fulfilled

Q: Hello, I'm reviewing records and need to know if EM(nm) of C[n+]1ccc(C=CCc2ccccc2)cc1.[I-] [Compound A1] is below 600 nm. Could you check?
Ans: fulfilled

Q: Hello, I'm reviewing records and need to know if EM(nm) of CN(C)c1ccc(/C=C/C=C/c2cc[n+](C)c3ccccc23)cc1.[I-] [Compound G37] is below 600 nm. Could you check?
Ans: not fulfilled

Q: Hello, I'm reviewing records and need to know if EM(nm) of Cc1ccnc(-c2cc(C=Cc3ccccc3[N+](=O)[O-])cc[n+]2C)c1.[I-] [Compound J20] is below 600 nm. Could you check?
Ans: not fulfilled

Q: Hello, I'm reviewing records and need to know if EM(nm) of COc1ccc2c(ccc(C=Cc3cccc(Br)c3)[n+]2C)c1.[I-] [Compound I4] is below 600 nm. Could you check?
Ans: not fulfilled

Q: Hello, I'm reviewing records and need to know if EM(nm) of C[n+]1ccccc1C=Cc1cccc2ccccc12.[I-] [Compound C32] is below 600 nm. Could you check?
Ans: fulfilled

###

Assay: Fluorescence excitation/emission of the styryl dye library compounds
Type: physicochemical
Settings: EX/EM peak no. 1
Each entry gets N if its EM(nm) stays under 600 nm, and Y if its EM(nm) is 600 nm or above.

compound | category
C[n+]1ccc(C=Cc2ccc(Br)cc2)cc1.[I-] [Compound A5] | N
CC(=O)Nc1ccc(C=Cc2cc[n+](C34CC5CC(CC(C5)C3)C4)cc2)cc1.[Br-] [Compound B18] | N

Q: # bool: EM(nm) of C[n+]1ccc(/C=C/c2ccc(O)cc2)c2ccccc21.[I-] [Compound G16] >= 600 nm
Ans: N

Q: # bool: EM(nm) of COc1ccc2c(ccc(C=Cc3ccccc3F)[n+]2C)c1.[I-] [Compound I29] >= 600 nm
Ans: N

Q: # bool: EM(nm) of CCc1ccc(C=Cc2cc(OC)c(OC)c(OC)c2)[n+](C)c1.[I-] [Compound E13] >= 600 nm
Ans: N

Q: # bool: EM(nm) of C(=Cc1ccc2ccccc2c1)c1cc[n+](C23CC4CC(CC(C4)C2)C3)cc1.[Br-] [Compound B33] >= 600 nm
Ans: N

Q: # bool: EM(nm) of C[n+]1c(C=Cc2ccc(Br)cc2)ccc2ccccc21.[I-] [Compound H5] >= 600 nm
Ans: Y

Q: # bool: EM(nm) of COc1ccc2ccccc2c1/C=C/c1c(C)ccc[n+]1C.[I-] [Compound D23] >= 600 nm
Ans: N

###

Experiment: Fluorescence excitation/emission of the styryl dye library compounds
Type: physicochemical
Settings: EX/EM peak no. 1
Each entry gets -1 if its EM(nm) stays under 600 nm, and 1 if its EM(nm) is 600 nm or above.

Examples from the recorded data:
moleculeSmiles | category
Cc1ccnc(-c2cc(C=CC=Cc3ccc(N(C)C)cc3)cc[n+]2C)c1.[I-] | 1
COc1ccc2c(ccc(C=Cc3c4ccccc4cc4ccccc34)[n+]2C)c1.[I-] | 1
COc1ccc2c(ccc(C=Cc3ccc(N(C)C)cc3)[n+]2C)c1.[I-] | 1

Q: # bool: EM(nm) of C[n+]1c(C=Cc2ccc(OCc3ccccc3)c(OCc3ccccc3)c2)ccc2ccccc21.[I-] >= 600 nm
Ans: -1

Q: # bool: EM(nm) of CN(C)c1ccc(C=Cc2cc[n+](C)c(Br)c2)c2ccccc12.[I-] >= 600 nm
Ans: 1

Q: # bool: EM(nm) of COc1ccccc1C=Cc1cc[n+](C)c2ccccc12.[I-] >= 600 nm
Ans: 1

Q: # bool: EM(nm) of Cc1ccc(/C=C/c2ccc3ccccc3[n+]2C)cc1.[I-] >= 600 nm
Ans: 1

Q: # bool: EM(nm) of C[n+]1ccc(/C=C/c2cccc([N+](=O)[O-])c2)c2ccccc21.[I-] >= 600 nm
Ans: 1

Q: # bool: EM(nm) of C[n+]1ccc(C=Cc2ccccc2F)cc1.[I-] >= 600 nm
Ans: -1

Q: # bool: EM(nm) of C[n+]1c(C=Cc2ccc(O)cc2)ccc2ccccc21.[I-] >= 600 nm
Ans: 1

Q: # bool: EM(nm) of COc1ccc2ccccc2c1C=Cc1cc[n+](C)c(-c2cc(C)ccn2)c1.[I-] >= 600 nm
Ans: -1

Q: # bool: EM(nm) of COc1ccc2c(ccc(C=CC=Cc3ccccc3)[n+]2C)c1.[I-] >= 600 nm
Ans: -1

Q: # bool: EM(nm) of Cc1cccc(C=Cc2ccc3c(c2)OCO3)[n+]1C.[I-] >= 600 nm
Ans: -1

Q: # bool: EM(nm) of COc1ccc2c(ccc(C=Cc3cc(OC)c(OC)c(OC)c3)[n+]2C)c1.[I-] >= 600 nm
Ans: -1

Q: # bool: EM(nm) of C[n+]1c(C=Cc2ccccc2Br)ccc2ccccc21.[I-] >= 600 nm
Ans: 1

Q: # bool: EM(nm) of COc1cc(C=Cc2cccc(C)[n+]2C)cc(OC)c1OC.[I-] >= 600 nm
Ans: -1

Q: # bool: EM(nm) of CN(C)c1ccc(/C=C/c2cc[n+](C)c3ccccc23)cc1.[I-] >= 600 nm
Ans: 1

Q: # bool: EM(nm) of Brc1ccc(C=Cc2cc[n+](C34CC5CC(CC(C5)C3)C4)cc2)cc1.[Br-] >= 600 nm
Ans: -1

Q: # bool: EM(nm) of Cc1ccnc(-c2cc(C=Cc3ccc4ccccc4c3)cc[n+]2C)c1.[I-] >= 600 nm
Ans: -1

Q: # bool: EM(nm) of Cc1ccnc(-c2cc(C=CC=Cc3ccccc3)cc[n+]2C)c1.[I-] >= 600 nm
Ans: -1
